TARGET_OF_ASSAY: human muscarinic M3 receptor (Homo sapiens)
Construct: expressed in transfected cells
Sequence (P20309 whole entry): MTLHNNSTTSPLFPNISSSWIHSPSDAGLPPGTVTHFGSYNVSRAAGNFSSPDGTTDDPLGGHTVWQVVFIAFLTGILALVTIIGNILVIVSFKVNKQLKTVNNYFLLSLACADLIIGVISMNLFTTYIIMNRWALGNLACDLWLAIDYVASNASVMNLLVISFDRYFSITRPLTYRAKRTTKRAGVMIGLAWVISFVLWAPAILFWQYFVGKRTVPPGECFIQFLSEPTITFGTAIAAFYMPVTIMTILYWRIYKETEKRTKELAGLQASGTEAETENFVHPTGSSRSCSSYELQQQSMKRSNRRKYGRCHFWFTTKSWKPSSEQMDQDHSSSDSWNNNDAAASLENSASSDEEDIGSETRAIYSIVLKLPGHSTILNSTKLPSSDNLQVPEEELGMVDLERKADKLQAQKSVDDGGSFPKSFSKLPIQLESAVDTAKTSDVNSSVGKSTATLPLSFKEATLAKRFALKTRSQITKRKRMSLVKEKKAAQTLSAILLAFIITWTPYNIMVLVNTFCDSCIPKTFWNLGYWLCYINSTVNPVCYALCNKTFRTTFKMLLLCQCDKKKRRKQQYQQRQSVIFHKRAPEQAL
PROTOCOL_DESCRIPTION: Phospho-ERK1/2 assay, muscarinic M3
Format: cell-based
EXPERIMENTAL_PARAMETERS: CHO, read-out: % Emax cf. ACh (M3)
Method: Functional assays were performed using the Alphascreen Surefire phospho-ERK1/2 assay (Crouch & Osmond, Comb. Chem. High Throughput Screen, 2008). […] Plates were incubated for 2 h with gentle agitation in the dark and then read on a PHERAstar plate reader. pEC50 and Emax figures were calculated from the resulting data for each receptor subtype.
READOUT_LABEL: Emax (%)

Before answering, review these 5 worked examples.
[
  {
    "MOLECULE": "CCOC(=O)N1CCC[C@H](N2CCC(C(=O)NC3(C)CCC3)CC2)CC1",
    "READOUT_VALUE": 11
  },
  {
    "MOLECULE": "CCOC(=O)N1CCCC(N2CCC(F)(C(=O)NCC3CC3)CC2)CC1 (stereo not shown)",
    "READOUT_VALUE": 5
  },
  {
    "MOLECULE": "CCOC(=O)N1CCCC(N2CCC(F)(C(=O)NCC(C)C)CC2)CC1 (stereo not shown)",
    "READOUT_VALUE": 9
  },
  {
    "MOLECULE": "CCOC(=O)N1CCCC(N2CCC(C(=O)NCC3CCC3)CC2)CC1 (stereo not shown)",
    "READOUT_VALUE": 11
  },
  {
    "MOLECULE": "CCOC(=O)N1CCCC(N2CCC(F)(C(=O)NC3CCC3)CC2)CC1 (stereo not shown)",
    "READOUT_VALUE": 0
  }
]

A = CCOC(=O)N1CCCC(N2CCC(C(=O)NC3(C(F)(F)F)CCC3)CC2)CC1 (stereo not shown)
B = CCOC(=O)N1CCCC(N2CCC(C(=O)NC3CCCC3)CC2)CC1 (stereo not shown)
C = CCOC(=O)N1CCCC(N2CCC(C(=O)NCC3(CC)CCC3)CC2)CC1 (stereo not shown)
D = CCOC(=O)N1CCCC(N2CCC(F)(C(=O)NC(C)(C)C3CC3)CC2)CC1 (stereo not shown)
E = CCOC(=O)N1CCCC(N2CCC(C(=O)NCC(C)CC)CC2)CC1 (stereo not shown)
// sort entries: Emax, high to low I would appreciate it if you listed the labels in the requested order. B, C, D, A, E

I = CCOC(=O)N1CCCC(N2CCC(C(=O)NCC(C)C)CC2)CC1 (stereo not shown)
II = CCOC(=O)N1CCCC(N2CCC(C(=O)NCC3(C)CCCC3)CC2)CC1 (stereo not shown)
III = CCOC(=O)N1CCCC(N2CCC(F)(C(=O)NC3CCCC3)CC2)CC1 (stereo not shown)
IV = CCOC(=O)N1CCCC(N2CCC(C(=O)N(CC)CC3CC3)CC2)CC1 (stereo not shown)
Ascending by Emax, please. I would appreciate it if you listed the labels in the requested order. IV, II, III, I
(IV: 0%, II: 4%, III: 6%, I: 33%)

P = CCOC(=O)N1CCCC(N2CCC(C(=O)NC3(CC)CCC3)CC2)CC1 (stereo not shown)
Q = CCOC(=O)N1CCCC(N2CCC(C(=O)NCC(C)C3CC3)CC2)CC1 (stereo not shown)
Pick one: P or Q . Which has the bigger Emax number? # reply format: chosen label Q
(Q: 8%, P: 4%)

A = CCOC(=O)N1CCCC(N2CCC(OC)(C(=O)NCC3(C)CCC3)CC2)CC1 (stereo not shown)
B = CCOC(=O)N1CCC(N2CCC(C(=O)NC(C)(C)C(C)C)CC2)CC1
Of the pair A and B , name the member with the lesser recorded Emax. # reply format: chosen label B

Just for reference, patent US10973832B2 is where these values come from.
